# target-entity: Gal3S(b1-4)Glc
# assay-procedure: glycan array binding signal (z-score within array); higher = stronger binding
# condition-notes: glycan notation: IUPAC condensed, linker removed
Shown is part of a subset that was picked to be rich in the strongest signals.
measured-property: glycan array binding signal (z-score)
Write the value as a bare number.

Would you please look over these solved cases?
binder	observed
ArathEULS3 TAP (Arabidopsis thaliana) (protein) IDENLYFQGGSMDEKTTGWRGGHVVEGLAGELEQLRARLEHHPQGQREPGGGGSLEITSLYKKAGFMEHHHQHHRHHQRDDGEDDRQSFGVPPPHVDAPPQPHGLYQSQPHFDPYAPTPQAPAPYRSETQFEPHAPPPYRSEPYFETPAPPPSFGHVSHVGHQSPNESYPPEHHRYGGYQQPSNSLLESHGDHSGVTHVAHHSSNQPQSSSGVYHKPDENRLPDNLAGLAGRATVKVYSKAEPNYNLTIRDGKVILAPADPSDEAQHWYKDEKYSTKVKDADGHPCFALVNKATGEAMKHSVGATHPVHLIRYVPDKLDESVLWTESKDFGDGYRTIRMVNNTRLNVDAYHGDSKSGGVRDGTTIVLWDWNKGDNQLWKIFPF	0.159
Gal 8 (Homo sapiens), O00214 (protein) MMLSLNNLQNIIYNPVIPFVGTIPDQLDPGTLIVIRGHVPSDADRFQVDLQNGSSMKPRADVAFHFNPRFKRAGCIVCNTLINEKWGREEITYDTPFKREKSFEIVIMVKDKFQVAVNGKHTLLYGHRIGPEKIDTLGIYGKVNIHSIGFSFSSDLQSTQASSLELTEISRENVPKSGTPQLPSNRGGDISKIAPRTVYTKSKDSTVNHTLTCTKIPPMNYVSKRLPFAARLNTPMGPGRTVVVKGEVNANAKSFNVDLLAGKSKDIALHLNPRLNIKAFVRNSFLQESWGEEERNITSFPFSPGMYFEMIIYCDVREFKVAVNGVHSLEYKHRFKELSSIDTLEINGDIHLLEVRSW	0.286
LFA (Limax flavus) (protein) MSVLFLAASFLLLASFELVAAQGCPRQDPGDWIVIQRRLNADVNFYRGWADYKHGFGDLRCNFWLGNEKIHQLTSHGRYKLRVEFTFNNKSYFAEYSTFKILGEADKYKLQVGGYSGNAGDALTFHNGMAFSTNDRDNDADSIDCAKVYHGAWWYKTCHESNLNGKWGSKKYGEGLNWKAKTTFTATATSSLLKIKALK	-0.271
Ovorubin (Pomacea canaliculata), J7I2T6 (protein) MFVATSLLLAIATLVVRASPHNYLIMDIEPPKSVSERDILNLLSPLQVKHSFRVTGSTRLLIVIRLDAQSYEKLDEITVPGKVEVIPAVNMADTMERCGVSWPRVELTDDNVTLFESESTLTDVTKEQLKAMLIGYGEHMSGLLQAHRFEYYQAAGATPHRHFVFVNSVPDEIEVFGREGVDIWGGPGEFVVKPQYVTRI	-0.766

Here's the next entry for you.
In: Param item = Regenerating Gene I (Homo sapiens), P05451 (protein) MAQTSSYFMLISCLMFLSQSQGQEAQTELPQARISCPEGTNAYRSYCYYFNEDRETWVDADLYCQNMNSGNLVSVLTQAEGAFVASLIKESGTDDFNVWIGLHDPKKNRRWHWSSGSLVSYKSWGIGAPSSVNPGYCVSLTSSTGFQKWKDVPCEDKFSFVCKFKN ; retrieve measured glycan array binding signal (z-score).
Out: 0.272
